Test Target: T1, IL2R(bg)-Fc construct (human IL2R beta extracellular domain fused to Fc(knob) with avi tag, human IL2R gamma … (human, biotin on the C-terminal avi tag (co-expressed BirA)))
T1 construct: Knob-into-hole Fc heterodimer; also called IL2Rβγ; human heterodimeric IL-2 receptor beta/gamma
T1 sequence (chain, as listed by the source limits assumed, chain 1 of 2): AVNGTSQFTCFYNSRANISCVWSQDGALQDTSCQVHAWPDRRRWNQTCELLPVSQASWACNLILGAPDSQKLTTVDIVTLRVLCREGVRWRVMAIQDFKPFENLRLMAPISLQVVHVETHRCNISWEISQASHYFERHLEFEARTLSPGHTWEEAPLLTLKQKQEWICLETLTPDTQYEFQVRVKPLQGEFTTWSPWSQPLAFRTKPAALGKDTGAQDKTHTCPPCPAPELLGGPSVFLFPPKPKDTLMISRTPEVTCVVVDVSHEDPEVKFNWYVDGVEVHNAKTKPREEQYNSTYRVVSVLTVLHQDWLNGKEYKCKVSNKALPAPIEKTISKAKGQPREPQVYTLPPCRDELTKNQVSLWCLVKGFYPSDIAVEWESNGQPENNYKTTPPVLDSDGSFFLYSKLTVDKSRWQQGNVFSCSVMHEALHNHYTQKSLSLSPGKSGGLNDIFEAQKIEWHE
T1 sequence (chain, as listed by the source limits assumed, chain 2 of 2): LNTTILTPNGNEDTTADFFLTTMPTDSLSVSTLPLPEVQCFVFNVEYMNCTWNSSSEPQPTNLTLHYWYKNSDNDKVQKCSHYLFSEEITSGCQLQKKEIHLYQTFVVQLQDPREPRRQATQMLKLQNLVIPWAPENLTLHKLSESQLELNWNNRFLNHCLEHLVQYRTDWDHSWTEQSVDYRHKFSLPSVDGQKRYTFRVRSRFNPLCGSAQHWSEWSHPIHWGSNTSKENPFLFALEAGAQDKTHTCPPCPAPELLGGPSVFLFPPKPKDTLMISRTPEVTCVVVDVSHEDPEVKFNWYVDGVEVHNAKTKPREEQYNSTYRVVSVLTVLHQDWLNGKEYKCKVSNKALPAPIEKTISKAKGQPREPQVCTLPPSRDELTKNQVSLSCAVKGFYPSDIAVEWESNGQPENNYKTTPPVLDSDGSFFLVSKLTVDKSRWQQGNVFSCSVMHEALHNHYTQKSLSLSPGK
Assay Summary: ELISA: biotinylated IL2R(bg)-Fc coated on neutravidin plates, clone in bacterial supernatant bound at pH 6, washing and 30 min incubation at pH 6.0, 6.5, 7.0 or 7.4, detection with anti-Flag/HRP; absorption at pH 6 set to 1
Experimental Readout: binding result

ExplResOnc.P173.0364 (ligand, not shown: large carriers, as m20) APASSSTKKTQLQLEDLLLDLQNILNGINNYKNPKLTRMLTAKFAMPKKATELKHLQCLEEELKPLEEVLNGAQSKNFHLDPRELISNINVIVLELKGSETTFMCEYADETATIVEFLNHWITFAQSIIETLE    binds
ExplResOnc.P173.0127 (ligand, not shown: large carriers, as m20) APASSSTKKTELQLEELLDDLQEILNGINNYKNPKLTRMLTAKFAMPKKATELKHLQCLEEELKPLEEVLNGAQSKNFHLDPRDLIENINVIVLELKGSETTFMCEYADETATIVEFLNHWITFAESIISTLD    binds
